System: MDA-MB-231
protocol: CellTiter-Glo 72 h cytotoxicity assay, MDA-MB-231
Assay type: cell-based
experimental.conditions: Homo sapiens, CTG assay, read-out: MDA-MB231 (EC50)
readout.label: pEC50
# pEC50 = -log10(concentration in molar units)

Fill blank: measured pEC50 of the compound CC(C)[C@@H](C)/C=C/[C@@H](C)[C@H]1CC[C@@H]2[C@]1(C)CC[C@H]1[C@]23C=C[C@]2(C[C@@H](OC(=O)NS(=O)(=O)c4ccccc4)CC[C@]12C)OO3 is ____. 4.92

// same read-out, input: CC(C)[C@@H](C)C1OC1[C@@H](C)[C@H]1CC[C@@H]2[C@]1(C)CC[C@H]1[C@]23C=C[C@]2(C[C@@H](O)CC[C@]12C)OO3 (some centres unmarked) 4.80

// same read-out, input: C=CC(=O)O[C@H]1CC[C@]2(C)[C@H]3CC[C@]4(C)[C@@H]([C@H](C)/C=C/[C@H](C)C(C)C)CC[C@H]4[C@@]34C=C[C@]2(C1)OO4 4.32

// same read-out, input: CC(C)[C@@H](C)/C=C/[C@@H](C)[C@H]1CC[C@@H]2[C@]1(C)CC[C@H]1[C@@]23OO[C@@]2(C[C@@H](O)CC[C@]12C)C(O)C3O (some centres unmarked) 4.59

// same read-out, input: CC(C)[C@@H](C)C1OC1[C@@H](C)[C@H]1CC[C@@H]2[C@]1(C)CC[C@H]1[C@]23C=C[C@]2(C[C@@H](OS(=O)(=O)O)CC[C@]12C)OO3 (some centres unmarked) 5.13

// same read-out, input: CC(C)[C@@H](C)/C=C/[C@@H](C)[C@H]1CC[C@@H]2[C@]1(C)CC[C@H]1[C@@]23OO[C@@]2(C[C@@H](OS(=O)(=O)O)CC[C@]12C)C(OS(=O)(=O)O)C3OS(=O)(=O)O (some centres unmarked) 4.97

// same read-out, input: CC(C)[C@@H](C)C(O)C(O)[C@@H](C)[C@H]1CC[C@@H]2[C@]1(C)CC[C@H]1[C@@]23OO[C@@]2(C[C@@H](O)CC[C@]12C)C(O)C3O (some centres unmarked) 4.53

// same read-out, input: CC(C)[C@@H](C)/C=C/[C@@H](C)[C@H]1CC[C@@H]2[C@]1(C)CC[C@H]1[C@]23C=C[C@]2(C[C@@H](OS(=O)(=O)O)CC[C@]12C)OO3 5.46

// same read-out, input: CC(C)[C@@H](C)/C=C/[C@@H](C)[C@H]1CC[C@@H]2[C@]1(C)CC[C@H]1[C@]23C=C[C@]2(CC(=O)CC[C@]12C)OO3 5.15

// same read-out, input: CC(C)[C@@H](C)/C=C/[C@@H](C)[C@H]1CC[C@@H]2[C@]1(C)CC[C@H]1[C@]23C=C[C@]2(C[C@@H](O)CC[C@]12C)OO3 [Compound 2, Ergosterol peroxide] 4.74

---

protocol: Plasma protein binding, rapid equilibrium dialysis (mouse)
Format: in vitro ADME
readout.label: fraction unbound
Please give the numeric answer without any surrounding text.

Fill blank: measured fraction unbound of the molecule CC(C)[C@@H](C)/C=C/[C@@H](C)[C@H]1CC[C@@H]2[C@]1(C)CC[C@H]1[C@]23C=C[C@]2(C[C@@H](OC(=O)NS(=O)(=O)c4ccccc4)CC[C@]12C)OO3 is ____. 0.0017
